Readings of drug sensitivity score for the listed compounds
test system: Bowes; test: drug sensitivity score (DSS) (DSS (unitless, 0-50 scale)); higher = more sensitive (stronger viability inhibition); extreme values may be limits of the assay; details: 72 h; culture: 2D
Answer field: number only, no words.

These solved cases illustrate the format of a correct answer.
CC(C)(C)c1cnc(CSc2cnc(NC(=O)C3CCNCC3)s2)o1    31.8
O=C(O)CC1CC(c2ccccc2)=NO1 (centres undefined)    0
CN(C)Cc1ccc(S(=O)(=O)n2ccc(/C=C/C(=O)NO)c2)cc1    2.7

Recorded drug sensitivity score for O=C(NOCCO)c1ccc2cncn2c1Nc1ccc(I)cc1F , please? 1.4

Let us now turn to O=C(Nc1ccncc1)C(=O)c1cn(Cc2ccc(Cl)cc2)c2ccccc12 11.1

----------
system: FM-MEL-6; experiment: drug sensitivity score (DSS) (DSS (unitless, 0-50 scale)); higher = more sensitive (stronger viability inhibition); extreme values may be limits of the assay; settings: 72 h; culture: 2D
Readings of drug sensitivity score for the listed compounds
Answer field: number only, no words.

These solved cases illustrate the format of a correct answer.
O=c1[nH]c(=O)n([C@H]2C[C@H](O)[C@@H](CO)O2)cc1C(F)(F)F    0.8
Cc1ccc(-n2nc(C(C)(C)C)cc2NC(=O)Nc2ccc(OCCN3CCOCC3)c3ccccc23)cc1    0.8
COc1cc2c(cc1-c1c(C)noc1C)ncc1[nH]c(=O)n([C@H](C)c3ccccn3)c12    5

Recorded drug sensitivity score for Cc1ccc(NC(=O)c2ccc(CN3CCN(C)CC3)cc2)cc1Nc1nc(-c2cccnc2)cs1 , please? 4.4

----------
system: Bowes; assay: drug sensitivity score (DSS) (DSS (unitless, 0-50 scale)); higher = more sensitive (stronger viability inhibition); extreme values may be limits of the assay; conditions: 72 h; culture: 2D
Observed property: drug sensitivity score
Answer field: number only, no words.

These solved cases illustrate the format of a correct answer.
CCn1c(-c2nonc2N)nc2cnc(Oc3cccc(NC(=O)c4ccc(OCCN5CCOCC5)cc4)c3)cc21    0
O=c1sn(-c2cccc3ccccc23)c(=O)n1Cc1ccccc1    0
CN1CCC(CNc2ccc3ncc(-c4cccc(OC(F)(F)F)c4)n3n2)CC1    5.5
CCOCc1nc2c(N)nc3ccccc3c2n1CC(C)(C)O    0.1
Clc1ccc(Nc2nnc(Cc3ccncc3)c3ccccc23)cc1    0

# next compound below
Which measured drug sensitivity score belongs to Cn1cc(C2=C(c3cn(C4CCN(Cc5ccccn5)CC4)c4ccccc34)C(=O)NC2=O)c2ccccc21 , tested on Bowes? 0

----------
Readings of drug sensitivity score for the listed compounds
test system: Bowes; assay: drug sensitivity score (DSS) (DSS (unitless, 0-50 scale)); higher = more sensitive (stronger viability inhibition); extreme values may be limits of the assay; conditions: 72 h; culture: 2D
Answer field: number only, no words.

CC(=O)OC[C@H]1O[C@@H]([S-])[C@H](OC(C)=O)[C@@H](OC(C)=O)[C@@H]1OC(C)=O.CCP(CC)CC.[Au+]    12.4
O=C(NOC[C@H](O)CO)c1ccc(F)c(F)c1Nc1ccc(I)cc1F    0.5
CC1(COc2ccc3c(c2)ncn3-c2ccc3cccc(N4CCC(N)CC4)c3n2)COC1    4.6

Which measured drug sensitivity score belongs to COc1cc(N2CCN(C)CC2)ccc1Nc1nccc(-c2cn(C)c3cnccc23)n1 , tested on Bowes? 3.4

Let us now turn to CC(O)c1cc(C(=O)N[C@@H](C)Cn2ccc(-c3ccc(C#N)c(Cl)c3)n2)n[nH]1 (stereo partly specified) 1.3

Let us now turn to CCS(=O)(=O)N1CC(CC#N)(n2cc(-c3ncnc4[nH]ccc34)cn2)C1 0

Let us now turn to CCOC(=O)C1=CCCC[C@H]1S(=O)(=O)Nc1ccc(F)cc1Cl 0

Let us now turn to Cc1cn(-c2cc(NC(=O)c3ccc(C)c(Nc4nccc(-c5cccnc5)n4)c3)cc(C(F)(F)F)c2)cn1 0

----------
Readings of drug sensitivity score for the listed compounds
system: FM-MEL-2; assay: drug sensitivity score (DSS) (DSS (unitless)); higher = more sensitive; conditions: 72 h; culture: 3D spheroid
Answer field: number only, no words.

These solved cases illustrate the format of a correct answer.
O=C(Nc1ccc2[nH]nc(-c3ccncc3)c2c1)[C@@H]1CCN(CC(=O)N2CCN(c3ccc(-c4ncccn4)cc3)CC2)C1    25
O=C(c1ccc(F)c(F)c1Nc1ccc(I)cc1F)N1CC(O)([C@@H]2CCCCN2)C1 [Cobimetinib]    21.8
Cn1cnc2c(F)c(Nc3ccc(Br)cc3Cl)c(C(=O)NOCCO)cc21 [Selumetinib]    20.3

# next compound below
Recorded drug sensitivity score for COc1ccc(-c2ccc3c(N4CCOC[C@@H]4C)nc(N4CCOC[C@@H]4C)nc3n2)cc1CO [AZD8055] , please? 18.1

----------
test system: Bowes; assay: drug sensitivity score (DSS) (DSS (unitless, 0-50 scale)); higher = more sensitive (stronger viability inhibition); extreme values may be limits of the assay; settings: 72 h; culture: 2D
# cutoff 2 applies to drug sensitivity score; >= gives met, < gives not met

COc1cc2nccc(Oc3ccc(NC(=O)C4(C(=O)Nc5ccc(F)cc5)CC4)cc3)c2cc1OC [Cabozantinib]    met

Item COc1ccccc1S(=O)(=O)Nc1ccc2c(c1)CN(C)C(=O)N2 [PFI-1] with drug sensitivity score of 2 or above? met

Let us now turn to O=C(Nc1ccc2[nH]nc(-c3ccncc3)c2c1)[C@@H]1CCN(CC(=O)N2CCN(c3ccc(-c4ncccn4)cc3)CC2)C1 not met

Let us now turn to COc1cc2nccc(Oc3ccc(NC(=O)NC4CC4)c(Cl)c3)c2cc1C(N)=O [Lenvatinib] not met

Let us now turn to C[C@H]1C[C@@H]2[C@H]([C@@H](O)C[C@@]3(C)[C@H]2CC[C@]3(O)C(=O)CO)[C@@]2(C)C=CC(=O)C=C12 [Methylprednisolone] not met

Let us now turn to O=c1[nH]c(C2CCCN2)nc2c1oc1ccc(Cl)cc12 (configuration not stated) not met

Let us now turn to CN1CCN(C(=O)c2ccc3cc(CCNc4ncnc5ccc(C#N)cc45)ccc3c2)CC1 [Senexin B] not met

Let us now turn to COC(=O)N[C@@H](C)CNc1nccc(-c2cn(C(C)C)nc2-c2cc(Cl)cc(NS(C)(=O)=O)c2F)n1 [Encorafenib] not met

Let us now turn to C[C@@H](Oc1ccc2[nH]nc(/C=C/c3cnn(CCO)c3)c2c1)c1c(Cl)cncc1Cl met

Let us now turn to COCC1(CO)C(=O)C2CCN1CC2 (configuration not stated) [APR-246] not met

Let us now turn to CC(C)c1c(C(=O)Nc2ccccc2)c(-c2ccccc2)c(-c2ccc(F)cc2)n1CC[C@@H](O)C[C@@H](O)CC(=O)O [Atorvastatin] met

Let us now turn to CCCN(CCC)C(=O)C1=Cc2ccc(-c3ccc(C(=O)N4CCCC4)cc3)cc2N=C(N)C1 [Motolimod] not met

Let us now turn to O=C(O)c1ccc(O)c2ncccc12 [IOX-1] not met

Let us now turn to c1cc(CN2CCCNCCNCCCNCC2)ccc1CN1CCCNCCNCCCNCC1 [Plerixafor] not met

Let us now turn to CNC(=O)c1ccc2cc([C@@]3(O)CCn4cncc43)ccc2c1 [Orteronel] not met

Let us now turn to CC(=O)c1c(C)c2cnc(Nc3ccc(N4CCNCC4)cn3)nc2n(C2CCCC2)c1=O [Palbociclib] met

Let us now turn to CCCCCCCCc1ccc(CCC(N)(CO)CO)cc1 [Fingolimod] met

----------
system: FM-MEL-6; test: drug sensitivity score (DSS) (DSS (unitless, 0-50 scale)); higher = more sensitive (stronger viability inhibition); extreme values may be limits of the assay; settings: 72 h; culture: 2D
Observed property: drug sensitivity score
Answer field: number only, no words.

These solved cases illustrate the format of a correct answer.
CC[C@@H]1CN(C(=O)NCC(F)(F)F)C[C@@H]1c1cnc2cnc3[nH]ccc3n12    3.6
CN(C)CC#Cc1ccc(OCCCc2sc(N3CCc4cccc(C(=O)Nc5nc6ccccc6s5)c4C3)nc2C(=O)O)c(F)c1    0.7
O=c1[nH]c(=O)n([C@H]2C[C@H](O)[C@@H](CO)O2)cc1F    1.2
Cc1nc(Nc2ncc(C(=O)Nc3c(C)cccc3Cl)s2)cc(N2CCN(CCO)CC2)n1    0
CC(C)(C)c1cc(NC(=O)Nc2ccc(Oc3ccnc4[nH]c(=O)cnc34)cc2F)n(-c2ccccc2)n1    4.2
CC[C@]12C=CCN3CC[C@@]4(c5cc([C@@]6(C(=O)OC)C[C@@H]7C[C@@H](C(C)(F)F)CN(Cc8c6[nH]c6ccccc86)C7)c(OC)cc5N(C)[C@H]4[C@@](O)(C(=O)OC)[C@@H]1OC(C)=O)[C@@H]32    3.8

Recorded drug sensitivity score for COc1cc2c(NC3CCN(C(C)C)CC3)nc(N3CCC(F)(F)CC3)nc2cc1OCCCN1CCCC1 , please? 2.5

Let us now turn to Clc1ccccc1C(c1ccccc1)(c1ccccc1)n1cccn1 0
